The following variants are shown together with reported protein stability index values.
B1: TMEM106C (parent)
chain: YVTTNVSLIPPRSEQLVNFTGKAE

# Variants of: B1
# assay-protocol: protein stability index of a GFP-peptide fusion (GPS, HEK-293T) (PSI 1-6); higher = more stable;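 further: lentivirally expressed fusions sorted by FACS into six bins by GFP to DsRed ratio, PSI derived from sequencing read proportions per bin multiplied by bin number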
# condition-details: c terminus: a fixed tail appended
value-kind: protein stability index

variant-id	value-kind	recorded-result
F19I	protein stability index	2.02
L8N	protein stability index	1.98
F19A	protein stability index	2.03
F19P	protein stability index	2.03
K22L	protein stability index	1.96
S13M	protein stability index	2
L8T	protein stability index	1.95
I9R	protein stability index	1.99
I9K	protein stability index	2.02
F19N	protein stability index	2
N5D	protein stability index	1.96
T3V	protein stability index	1.98
